test system: OVCAR-4 ovarian; assay: NCI tumour cell line growth inhibition, 48 h; in the data active = GI50 below about 0.43 µM; inactive = the rest
Please answer using one outcome listed in TRUE = active, FALSE = inactive

compound	group
CN1CCN(C(=S)SCN2C(=O)c3ccccc3S2(=O)=O)CC1	FALSE
Cc1cc2c(cc1Cl)SC1=NN(C)C(c3ccccc3O)N1S2(=O)=O (stereo not given)	FALSE
OCCCCC#Cc1ccccc1C#Cc1cnccn1	FALSE

INPUT: Dear all, I need the recorded test outcome for "CC[C@@]1(O)C(=O)OCc2c1cc1n(c2=O)Cc2cc3c(NC(C)=O)c(O)ccc3nc2-1" , thank you.
OUTPUT: FALSE

INPUT: For this compound, state the assay outcome: "C=C(C)[C@@H]1CCC[C@]2(C(=O)O)CC[C@]3(C)[C@@H](CC[C@@H]4[C@@]5(C)C/C(=C/c6ccncc6)C(=O)C(C)(C)[C@@H]5CC[C@]43C)[C@@H]12"
OUTPUT: FALSE

---

The reader will find reported GI50 values listed item by item below.
system: PC-3 prostate; assay: NCI tumour cell line growth inhibition, 48 h

compound	GI50
C=C(C)[C@@H]1CCC[C@]2(C(=O)O)CC[C@]3(C)[C@@H](CC[C@@H]4[C@@]5(C)C/C(=C/c6ccncc6)C(=O)C(C)(C)[C@@H]5CC[C@]43C)[C@@H]12	2.39 µM
CN1CCN(C(=S)SCN2C(=O)c3ccccc3S2(=O)=O)CC1	10.8 µM
O=C(NO)C(O)C(O)C(O)C(O)CO (stereo not given)	> 100 µM

INPUT: Please look up its GI50: "C#Cc1ccc(-n2c(/C=C/c3cc(OC)c(OC)c(OC)c3)nc3ncccc3c2=O)cc1"
OUTPUT: 3.96 µM

INPUT: What does the data say about its GI50? Entry: "COC(=O)Nc1nc2ccc(Sc3ccc(NC(=O)Nc4cc(C(F)(F)F)ccc4F)cc3)cc2[nH]1"
OUTPUT: 3.38 µM

---

test system: NCI-H522 lung; experiment: NCI tumour cell line growth inhibition, 48 h
The entries below come with measured GI50 values attached.

INPUT: Item Cc1cc2c(cc1Cl)SC1=NN(C)C(c3ccccc3O)N1S2(=O)=O (stereo not given) has what recorded GI50?
OUTPUT: > 100 µM

INPUT: Query (compound): "Cn1c(COC(=O)NCCN2CCOCC2)nc2c(N3CCOCC3)nc(-c3ccccc3)nc21" ; field requested: GI50
OUTPUT: 0.424 µM

INPUT: Given the compound CCOC(=O)Cc1csc(NC(=O)C(OC(=O)c2ccc(N)cc2)c2ccccc2)n1 (stereo not given) , what is its reported GI50?
OUTPUT: 43 µM

INPUT: Given the compound "COc1cc(C(=O)N/N=C/c2cccc([N+](=O)[O-])c2)cc(OC)c1OC" , what is its reported GI50?
OUTPUT: 2.45 µM

INPUT: Can you share its GI50? I mean this compound: "C=C(CC1(CC(=C)c2ccc(C(=O)O)cc2)C(=O)N(C)C(=O)N(C)C1=O)c1ccc(C(=O)O)cc1"
OUTPUT: 31.3 µM

---

tested on: OVCAR-5 ovarian; assay: NCI tumour cell line growth inhibition, 48 h
Peptide text beside a SMILES is read from it. * marks the point of attachment. Boc = CC(C)(C)OC(=O)*
Give 1 (yes) when the value for TGI is at least 20 µM. Give 0 (no) when it is less.

Study these solved cases before continuing.
compound	group
Cc1cnc2[nH]c(-c3ccccc3)cc(=O)c2c1	1 (yes)
CC(=O)Nc1ccc(-n2cnc3cc(-c4ccc(OCCN5CCCCC5)cc4)ccc32)cc1	0 (no)
C=C(C)[C@]12CC(C)C34OC(/C=C\C=C\CCCCCCCCC)(O[C@@H]1[C@@H]3[C@@H]1O[C@]1(CO)[C@@H](O)[C@]1(O)C(=O)C(C)=C[C@@H]41)O2 (some centres undefined)	1 (yes)
CSCCC(NC(=O)C(CC(C)C)NC(=O)CNC(=O)OC(C)(C)C)C(=O)N(C)C (stereo not drawn) (Boc-Gly-Leu-Met-NMe2; configuration not given here)	1 (yes)
N#CC(=C=[N-])[n+]1ccc(Cl)cc1	1 (yes)

INPUT: Check if TGI >= 20 µM (inclusive). Item: "COC(=O)Nc1nc2ccc(Sc3ccc(NC(=O)Nc4cc(C(F)(F)F)ccc4F)cc3)cc2[nH]1"
OUTPUT: 0 (no)

INPUT: Threshold query (TGI >= 20 µM) on CCC1(N2C(=O)c3c(F)c(F)c(F)c(F)c3C2=O)C(=O)NC(=O)N(c2ccccc2)C1=O (centres undefined)
OUTPUT: 0 (no)

INPUT: Reported TGI reaches at least 20 µM for Cc1cccc(CC(C)(C)C)c1NC(=O)C(=O)C(C(=O)c1ccc2ccccc2c1)C1OC(=O)c2ccccc21 (centres undefined) ?
OUTPUT: 1 (yes)

INPUT: Is TGI for "CCc1nc(N)nc(N)c1-c1ccc([N+](=O)[O-])c(Cl)c1" at or above 20 µM?
OUTPUT: 1 (yes)

Hello, the source for this data is PubChem BioAssay (NCI), in case you need it.
